Cited source for all entries: PubChem BioAssay (NCI)

Answer each item with its documented growth.
- Test system: MALME-3M melanoma
- EXPERIMENTAL_PROTOCOL: NCI-60 one-dose screen, 48 h (100 = growth as untreated, 0 = no growth, -100 = all killed)
- STATED_CONDITIONS: 10 µM unless noted
This is part of a sample that, as a whole, favours compounds with a hit. Of some 83,000 tested, about 20% had one in any assay.
# unit: % | format: bare number

Query growth on MALME-3M melanoma for O=C1C2CC=CCC2C(=O)N1SC(Cl)(Cl)Cl (stereo unspecified)
81.8

Query growth on MALME-3M melanoma for CCCCCSC1C2C(=O)C(Br)=CC13CCNc1c(O)c4c5c(c13)=[N+]2CCC=5C=N4 (stereo unspecified)
-99.5

Query growth on MALME-3M melanoma for Fc1ccc(C2=CCNCC2)cc1
95.5

Query growth on MALME-3M melanoma for COC(=O)[C@H](Cc1ccccc1)NC(=O)c1csc([C@@H](C[C@H](C(C)C)N(C)C(=O)[C@@H](NC(=O)[C@H]2CCCCN2C)C2CC2)OC(C)=O)n1
67.8

Query growth on MALME-3M melanoma for CC(CO)NC1CCCCC1 (stereo unspecified)
103

Query growth on MALME-3M melanoma for O=Cc1cn(Cc2ccc(Cl)cc2)c2ccccc12
96.5

Query growth on MALME-3M melanoma for CC[C@H](C)[C@@H]1OC(=O)C(C)(C)[C@H](O)[C@H](Cc2ccccc2)OC(=O)[C@H](C(C)C)OC(=O)[C@@H](NC(=O)c2cccc(NC=O)c2O)[C@@H](C)OC1=O
77.4

Query growth on MALME-3M melanoma for COc1ccc(/C=C\c2cc(OC)c(OC)c(OC)c2)cc1OCC(=O)Nc1nc2ccc(C(F)(F)F)cc2s1
43.8

Query growth on MALME-3M melanoma for COc1ccc(Nc2ccc([N+](=O)[O-])cc2[N+](=O)[O-])cc1CN(CCCl)CCCl
55.1

Query growth on MALME-3M melanoma for O=C(CC1(O)C(=O)Nc2ccccc21)c1ccc(C(=O)NCC2CCC3(CC2)OOC2(CCCCC2)OO3)cc1 (stereo unspecified)
56.1

Query growth on MALME-3M melanoma for CN1CCC(c2c[nH]c3ccccc23)C1 (stereo unspecified)
112

###

- Tested on: HL-60(TB) leukemia
- EXPERIMENTAL_PROTOCOL: NCI-60 one-dose screen, 48 h (100 = growth as untreated, 0 = no growth, -100 = all killed)
- STATED_CONDITIONS: 10 µM unless noted
This is part of a sample that, as a whole, favours compounds with a hit. Of some 83,000 tested, about 20% had one in any assay. Activity calls are given as the source filed them. The calls were made as follows: active = growth percent below 10; inactive = the rest.
VALUE_KIND: growth

Dear colleague, I am looking for the recorded growth of the following molecule: CC(C)=CCC/C(C)=C/C=N\N=C(/N)N[N+](=O)[O-]
113% (inactive)

Dear colleague, I am looking for the recorded growth of the following molecule: Clc1cccc(N2COOC3(OOC2)C2CC4CC(C2)CC3C4)c1
20.2% (inactive)

Dear colleague, I am looking for the recorded growth of the following molecule: CN(C)C(=O)Oc1ccccc1
94.5% (inactive)

Dear colleague, I am looking for the recorded growth of the following molecule: COC(=O)[C@@]1(O)C[C@H]2O[C@]1(C)n1c3ccccc3c3c4c(c5c6ccccc6n2c5c31)C(=O)NC4
-44.5% (active)

Dear colleague, I am looking for the recorded growth of the following molecule: O=C(CC1(O)C(=O)N(Cc2ccccc2)c2ccccc21)c1ccc(C(=O)NCC2CCC3(CC2)OOC2(CCCCC2)OO3)cc1 (configuration not stated)
-67.4% (active)

Dear colleague, I am looking for the recorded growth of the following molecule: CC1=C2[C@@H](CC1)[C@]1(C)O[C@@](C(C)C)(C[C@H]1O)[C@H]2OC(=O)C1CC1c1ccccc1 (some centres not stated)
80.5% (inactive)

Dear colleague, I am looking for the recorded growth of the following molecule: O=[N+]([O-])c1cc(I)cc([N+](=O)[O-])c1
125% (inactive)

Dear colleague, I am looking for the recorded growth of the following molecule: CCNc1nc(Cl)nc(NCC)n1
98.4% (inactive)

Dear colleague, I am looking for the recorded growth of the following molecule: CN(C)C1C(=O)C(C(N)=O)=C(O)C2(O)C(=O)C3=C(O)c4c(O)cccc4C(C)(O)C3CC12.[Cl][Sb]([Cl])[Cl] (configuration not stated)
31.4% (inactive)

Dear colleague, I am looking for the recorded growth of the following molecule: C/C(=C\c1ccn(-c2ccccc2N)n1)[C@@H]1C[C@@H]2O[C@]2(C)CCC[C@H](C)[C@H](O)[C@@H](C)C(=O)C(C)(C)[C@@H](O)CC(=O)O1
9.72% (active)

Dear colleague, I am looking for the recorded growth of the following molecule: C=C(C)[C@@]12OC3(/C=C/C=C/CCCCC)O[C@@H]1[C@@H]1[C@@H]4O[C@]4(CO)[C@@H](O)[C@]4(O)C(=O)C(C)=C[C@H]4[C@@]1(O3)[C@H](C)[C@H]2OC(=O)c1ccccc1
-7.45% (active)

Dear colleague, I am looking for the recorded growth of the following molecule: CCCCCCCC(=O)OCC(=O)[C@]1(O)Cc2c(O)c3c(c(O)c2[C@@H](OC2CC(N)C(O)C(C)O2)C1)C(=O)c1c(OC)cccc1C3=O (some centres not stated)
-92.4% (active)

Dear colleague, I am looking for the recorded growth of the following molecule: COC(=O)[C@@]1(C)CC[C@]2(C)CC[C@]3(C)C4=CC(=O)c5c(cc(O)c(O)c5C)[C@]4(C)CC[C@@]3(C)[C@@H]2C1
38.4% (inactive)

Dear colleague, I am looking for the recorded growth of the following molecule: NC(N)=N/N=C\c1c[nH]c2ccc(Br)cc12
93.5% (inactive)

Dear colleague, I am looking for the recorded growth of the following molecule: CC(=O)O[C@H](C[C@H](C(C)C)N(C)C(=O)[C@@H](NC(=O)[C@H]1CCCCN1C)C(C)C)c1cccc(C(=O)N[C@@H](Cc2ccccc2)C[C@H](C)C(=O)O)n1
-38.1% (active)

Dear colleague, I am looking for the recorded growth of the following molecule: CCOP(=O)(NC[C@H]1O[C@](O)(CO)[C@@H](O)[C@@H]1O)OCC
101% (inactive)

Dear colleague, I am looking for the recorded growth of the following molecule: COP(=S)(N1CC1)N1CC1
106% (inactive)

Dear colleague, I am looking for the recorded growth of the following molecule: Oc1ccc2c3c1OC1[C@@H](O)CC[C@@]4(O)[C@@H](C2)N(CC2CCC2)CC[C@]314 (some centres not stated)
102% (inactive)

Dear colleague, I am looking for the recorded growth of the following molecule: CC(C)(C)C(=O)OCOP(=O)(NCc1ccccc1)C1CCCN(O)C1=O (configuration not stated)
52.2% (inactive)

Dear colleague, I am looking for the recorded growth of the following molecule: Clc1ccc(CSC(Cn2ccnc2)c2ccc(Cl)cc2Cl)cc1 (configuration not stated)
-11.6% (active)

Dear colleague, I am looking for the recorded growth of the following molecule: O[C@H](CN1CC1)[C@@H](O)CN1CC1
30.7% (inactive)

Dear colleague, I am looking for the recorded growth of the following molecule: [Cl][Hg][n]1c(-c2ccco2)nc2ccccc21
95.5% (inactive)

Dear colleague, I am looking for the recorded growth of the following molecule: COC(=O)C12CC(NC(=O)c3csc([C@@H](C[C@H](C(C)C)N(C)C(=O)[C@@H](NC(=O)[C@H]4CCCCN4C)C(C)C)OC(C)=O)n3)(C1)C2
-38.9% (active)

Dear colleague, I am looking for the recorded growth of the following molecule: COc1cc(C=Nc2cccc(C(=O)O)c2)ccc1N(CCCl)CCCl
110% (inactive)

Dear colleague, I am looking for the recorded growth of the following molecule: CC[C@@H]1[C@@H](C)O[C@@](O)([C@@H](C)[C@H](O)[C@H](C)[C@H]2OC(=O)/C=C/C=C/[C@H](C)[C@@H]([C@@H](C)[C@@H](O)[C@H](C)[C@@]3(O)C[C@@H](O[C@H]4C[C@@H](O)[C@H](O)C(C)O4)[C@H](CC)[C@@H](C)O3)OC(=O)/C=C/C=C/[C@@H]2C)C[C@H]1O[C@@H]1C[C@@H](O)[C@H](O)C(C)O1 (some centres not stated)
-73.3% (active)

Dear colleague, I am looking for the recorded growth of the following molecule: COc1cccc2c1c(C(=O)c1ccco1)cn2Cc1ccc(F)cc1
162% (inactive)

Dear colleague, I am looking for the recorded growth of the following molecule: CC(C)(NC(=O)O[C@@H]1CN2CCC1CC2)c1csc(-c2ccc(F)cc2)n1
90% (inactive)
